Recorded IC50, one value per entry.
Experimental target: ENaC (Epithelial Sodium Channel) (Mus musculus, UniProt Q61180+Q9WU38+Q9WU39)
Construct: Mouse kidney M-1 cells were cultivated in DMEM containing 5% FCS and 5 μM dexamethasone; endogenous in cells
Sequence (Q61180 whole entry): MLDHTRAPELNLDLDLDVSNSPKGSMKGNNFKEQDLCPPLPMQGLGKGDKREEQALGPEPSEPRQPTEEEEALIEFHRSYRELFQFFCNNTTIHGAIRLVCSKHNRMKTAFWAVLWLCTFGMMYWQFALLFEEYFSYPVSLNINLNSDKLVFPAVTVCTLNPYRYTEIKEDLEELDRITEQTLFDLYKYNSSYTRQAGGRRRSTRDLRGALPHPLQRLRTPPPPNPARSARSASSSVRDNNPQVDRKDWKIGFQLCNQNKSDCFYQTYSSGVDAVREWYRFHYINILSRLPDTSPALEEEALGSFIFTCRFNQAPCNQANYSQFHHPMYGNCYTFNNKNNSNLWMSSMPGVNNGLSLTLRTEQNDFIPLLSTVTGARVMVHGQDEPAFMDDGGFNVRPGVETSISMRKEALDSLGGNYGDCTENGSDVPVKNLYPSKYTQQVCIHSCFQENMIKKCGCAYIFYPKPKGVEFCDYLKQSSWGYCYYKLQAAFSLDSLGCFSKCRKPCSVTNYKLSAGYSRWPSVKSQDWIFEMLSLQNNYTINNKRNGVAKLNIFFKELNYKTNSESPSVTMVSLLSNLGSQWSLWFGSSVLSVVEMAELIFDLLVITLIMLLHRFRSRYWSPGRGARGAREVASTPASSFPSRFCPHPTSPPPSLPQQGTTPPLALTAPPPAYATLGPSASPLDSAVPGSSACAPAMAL
Sequence (Q9WU38 whole entry): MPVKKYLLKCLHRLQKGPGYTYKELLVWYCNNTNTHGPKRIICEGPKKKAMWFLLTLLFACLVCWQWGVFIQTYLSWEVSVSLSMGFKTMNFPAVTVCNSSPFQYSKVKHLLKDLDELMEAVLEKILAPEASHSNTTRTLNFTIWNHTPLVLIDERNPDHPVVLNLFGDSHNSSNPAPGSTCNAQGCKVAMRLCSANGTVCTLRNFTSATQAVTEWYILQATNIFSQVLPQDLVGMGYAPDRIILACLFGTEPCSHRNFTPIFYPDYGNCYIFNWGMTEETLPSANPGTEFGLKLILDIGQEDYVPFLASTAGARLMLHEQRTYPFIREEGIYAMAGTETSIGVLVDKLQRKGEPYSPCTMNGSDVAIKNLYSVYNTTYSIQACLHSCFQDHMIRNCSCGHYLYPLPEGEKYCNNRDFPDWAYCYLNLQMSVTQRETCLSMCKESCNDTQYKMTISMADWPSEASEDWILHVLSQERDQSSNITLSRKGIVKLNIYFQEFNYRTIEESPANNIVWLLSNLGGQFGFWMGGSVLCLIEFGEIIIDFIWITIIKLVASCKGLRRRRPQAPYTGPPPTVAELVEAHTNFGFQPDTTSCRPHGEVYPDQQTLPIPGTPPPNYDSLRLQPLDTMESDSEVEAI
Sequence (Q9WU39 whole entry): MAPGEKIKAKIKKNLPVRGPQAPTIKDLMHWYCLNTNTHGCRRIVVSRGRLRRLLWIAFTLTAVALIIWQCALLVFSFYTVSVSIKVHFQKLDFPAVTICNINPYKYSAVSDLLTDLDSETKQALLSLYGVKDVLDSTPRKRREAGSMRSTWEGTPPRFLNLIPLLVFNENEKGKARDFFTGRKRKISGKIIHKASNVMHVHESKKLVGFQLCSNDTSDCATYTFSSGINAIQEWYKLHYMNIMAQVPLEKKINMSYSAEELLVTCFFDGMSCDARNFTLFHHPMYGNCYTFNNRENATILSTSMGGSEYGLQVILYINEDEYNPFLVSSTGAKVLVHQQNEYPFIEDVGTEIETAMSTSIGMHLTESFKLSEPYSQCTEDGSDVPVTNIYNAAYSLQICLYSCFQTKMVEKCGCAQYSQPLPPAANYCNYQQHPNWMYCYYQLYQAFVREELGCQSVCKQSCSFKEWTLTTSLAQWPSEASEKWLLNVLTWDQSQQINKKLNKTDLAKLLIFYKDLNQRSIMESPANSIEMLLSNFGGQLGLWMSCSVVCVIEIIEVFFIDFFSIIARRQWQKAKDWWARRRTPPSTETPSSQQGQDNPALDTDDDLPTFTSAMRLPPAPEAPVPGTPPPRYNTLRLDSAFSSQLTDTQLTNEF
Assay procedure: Ussing Chamber assay: inhibition of amiloride sensitive short circuit current in M-1 cells
Measurement conditions: Mouse kidney M-1 cells on transwell filters, compound added to apical solution, 37° C.
Metric: IC50 (nM)

Smiles repr	Metric	Unit string	Recorded result
CCn1c(CNC(=O)c2nc(Cl)c(N)nc2N)[n+](CCOCCOCCO)c2ccc(O)cc21	IC50	nM	1
C=CC[n+]1c(CNC(=O)c2nc(Br)c(N)nc2N)n(CC)c2cc(OCCCP(=O)(OCC)OCC)ccc21	IC50	nM	2
CCn1c(CNC(=O)c2nc(Br)c(N)nc2N)[n+](CCOCCOCCO)c2ccc(O)cc21.O=C([O-])C(F)(F)F	IC50	nM	1
CCOP(=O)(O)CCCOc1ccc2c(c1)n(CC)c(CNC(=O)c1nc(Cl)c(N)nc1N)[n+]2CC1CCOCC1	IC50	nM	8
CCn1c(CNC(=O)c2nc(Cl)c(N)nc2N)[n+](CCCC#N)c2ccc(OCCCP(=O)(O)O)cc21	IC50	nM	31
CCNC(=O)COc1ccc2c(c1)n(C1CCN(C(C)=O)CC1)c(CNC(=O)c1nc(Cl)c(N)nc1N)[n+]2CC	IC50	nM	10
CCn1c(CNC(=O)c2nc(Cl)c(N)nc2N)[n+](CC2CCOCC2)c2cc(Cl)c(N(CCO)CCO)cc21	IC50	nM	13
CC[n+]1c(CNC(=O)c2nc(Cl)c(N)nc2N)n(CC2CCN(C(=O)COCCOC)CC2)c2cc([O-])ccc21	IC50	nM	3
